Target: T1, recombinant human OX40-Fc (human, UniProt P43489 29-214)
T1 construct: also called rh-OX40-Fc; human OX40 hFC (R & D systems)
T1 sequence: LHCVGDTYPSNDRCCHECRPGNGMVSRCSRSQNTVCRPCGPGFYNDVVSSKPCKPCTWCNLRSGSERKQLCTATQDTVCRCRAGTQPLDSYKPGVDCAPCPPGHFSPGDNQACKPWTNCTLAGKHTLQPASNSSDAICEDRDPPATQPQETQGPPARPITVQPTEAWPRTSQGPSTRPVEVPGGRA
Assay: BLI, VHH-His on anti-His tips, OX40 hFc in solution;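 also: kinetics recorded at 30 °C in PBS pH 7.2, with 200 s of association followed by dissociation monitored in PBS lacking the OX40 protein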
Experimental Readout: kon (M⁻¹ s⁻¹)
Respond with the bare value in M⁻¹ s⁻¹.

Qu. Given pgXX88-60 (VHH, not shown: small tags and cut ends) VHH: EVQLVESGGGLAQPGGSLRLSCAASGFTFSNYAMGWYRQAPGKEREFVAAIDWSTNALLYGDSVKGRFTISRDNAKNTVFLQMSGLKPEDTALYYCAADRAYHTVVLGPPEGMDYWGKGTQVTVSS , state its recorded kon.
Ans. 464000

Qu. Given pgXX88-SZ-4 (VHH, not shown: small tags and cut ends, also called ppXX88-SZ-4) VHH: QVQLVESGGGLAQPGSSLRLSCTASGTVFSILSATWFRQAPGKAHEARELVAFISSDGVSMHADSVKGRFTISRDNAASTVYLQMDNLQPEDTAVYFCKLSNSMMSLEYWGRGTQVTVSS , state its recorded kon.
Ans. 472000

Qu. Given the entry pgXX88-84 (VHH, not shown: small tags and cut ends) VHH: EVQLVESGGRLVQAGDSLKLSCTASGRTFSDYVMGWFRQVPGEGRLMVAVITPAGDTTEYADAVKGRFSISKDSAKRTVNLQMNNLKVDDTAVYYCAAGPSWIGMQFGTAEYWGQGTQVTVSS , report its measured kon.
Ans. 494000

Qu. Query (binder): pgXX88-10 (VHH, not shown: small tags and cut ends) VHH: EVQLVESGGGLVQAGESLRLSCSASGSIRLNAVGWFRQAPVNQRLMVATITHNNSTNYADSVQGRFTIARDDAKNTVTLQMNSLKPEDTAVYMCKVYQLPVPISSHDDYWGQGTQVTVSS ; field requested: kon
Ans. 662000
